Reference source for all entries: the METLIN SMRT retention time set (Domingo-Almenara et al. 2019)

Answer each item with its documented RP-LC retention time.
Assay: gradient 5% acetonitrile 3 min, to 50% in 2 min, to 85% in 15 min, held 3 min, 100 µL/min
Conditions: column: Zorbax Extend-C18 2.1 x 50 mm; eluents: water / acetonitrile, 0.1% formic acid
Give bare numbers, in s.

Here is how some compounds turned out for RP-LC retention time.
Fc1ccc(Nc2nc(N3CCOCC3)nc3c2cnn3-c2ccccc2)cc1: 1170
COc1ccc(-c2noc(C3CC(=O)N(c4cc(C)cc(C)c4)C3)n2)cc1OC (centres undefined): 922
Cc1sc(-c2nc(C(C)C)cs2)cc1S(=O)(=O)Nc1cc(F)ccc1F: 1220
O=C(c1cc2ccccc2[nH]1)N1CCN(c2ccc(=O)n(-c3ccc(Cl)cc3)n2)CC1: 918
CSc1nc2ccc(NC(=O)c3ccc(N4C(=O)CCC4=O)cc3)cc2s1: 730
CCCN1C(=O)c2c(C(=O)Nc3ccccc3Cl)ncn2CC1(C)C(=O)NC1CCCC1 (centres undefined): 822
CCc1ccc(-c2noc(Cn3c(=O)n(-c4cccc(C)c4)c(=O)c4sccc43)n2)cc1: 1150
O=C(Nc1cccc(-c2cn3cccnc3n2)c1)c1ccccc1Cl: 666
O=C(CSc1nccn1-c1ccc(C(=O)NCc2cccs2)cc1)NC1CCCC1: 644
CCCC(NC(=O)c1cccc(F)c1)C(=O)Nc1nc2ccccc2[nH]1 (centres undefined): 693

Below is a list of compounds. For each, state its recorded RP-LC retention time.
1. Cc1ccc(C2=NC3(CCN(C(C)C)CC3)NC(c3ccccc3O)C2)cc1 (centres undefined)
2. Cc1c(C(=O)Nc2cc(=O)n(C)c(=O)n2C)cccc1[N+](=O)[O-]
3. CC(C)(C)n1nnnc1C1CC2(CCOCC2)C(=O)N1Cc1cccc(C(F)(F)F)c1 (centres undefined)
4. COCCCNC(=O)C1CCN(c2nc3ccc(-c4ccccc4)nc3s2)CC1
5. CCCN(C(=O)Nc1ccc(CC)cc1)c1nc(-c2ccc(C3CCCCC3)cc2)cs1
6. CC(C)CCNC(=O)N1CCN(Cc2nc3cccnc3n2-c2ccc(F)cc2)CC1
7. Cc1cc(N2CCCC2)nc(N2CCN(C(=O)CC3CCCC3)CC2)n1

1: 612; 2: 652; 3: 862; 4: 835; 5: 619; 6: 667; 7: 694

Dear colleague, could you send me RP-LC retention time for each of the items below? Thanks.
1. COc1ccc(Br)cc1Cn1nnc(C(=O)NCc2cccs2)c1N
2. CCc1ccc2c(-c3cccc(Cl)c3)nc(=O)n(CC)c2n1

1: 825; 2: 1120
